Tested on: SW982
Assay: relative viability vs DMSO control (72 h) (fraction); higher = more viable cells
Conditions: 10 µM
Labelling field: enter TRUE if recorded relative viability is less than 0.1. Enter FALSE if it equals or exceeds that cut-off.

1. COC(=O)[C@@]1(O)C[C@H]2O[C@]1(C)n1c3ccccc3c3c4c(c5c6ccccc6n2c5c31)C(=O)NC4 [K-252a]
TRUE
2. CC(C)NC[C@@H](C(=O)N1CCN(c2ncnc3c2[C@H](C)C[C@H]3O)CC1)c1ccc(Cl)cc1 [Ipatasertib]
FALSE
3. O=c1sn(-c2cccc3ccccc23)c(=O)n1Cc1ccccc1 [Tideglusib]
FALSE
4. O=S(=O)(c1cccc2cnccc12)N1CCCNCC1 [Fasudil]
FALSE
5. CC1(C)CC=C(c2nc(C3CC(C)(C)OC(C)(C)C3)ccc2NC(=O)c2nc(C#N)c[nH]2)CC1 [Edicotinib]
FALSE
6. CC1(COc2ccc3c(c2)ncn3-c2ccc3cccc(N4CCC(N)CC4)c3n2)COC1 [Crenolanib]
TRUE
7. Cn1cc(C2=C(c3cn(C4CCN(Cc5ccccn5)CC4)c4ccccc34)C(=O)NC2=O)c2ccccc21 [Enzastaurin]
FALSE
